System: EGFR (human), P00533 [P753S; 747-752 del]
Assay: KINOMEscan competition binding
Conditions: compound 10.0 µM
Lab note: cut-off is 70%. Strictly less in kinase still bound, per cent of control is criterion met. Exactly 70% or more is criterion not met.

• COc1cc2ncnc(Nc3cccc(Cl)c3)c2cc1OC = criterion met
• O=C(O)c1ccc(Nc2ncc3c(n2)-c2ccc(Cl)cc2C(c2c(F)cccc2F)=NC3)cc1 = criterion met
• CN(C)C/C=C/C(=O)Nc1cccc(Nc2ncc3c(n2)N(C)c2ccccc2C(=O)N3C)c1 = criterion not met
• COc1ccc(N(C(=O)Oc2c(C)cccc2C)c2ccnc(Nc3ccc(N4CCN(C)CC4)cc3)n2)c(OC)c1 = criterion met
• CCCS(=O)(=O)Nc1ccc(F)c(C(=O)c2c[nH]c3ncc(-c4ccc(Cl)cc4)cc23)c1F = criterion not met
• O=C1NC(=O)/C(=C/c2ccc3nccc(-c4ccncc4)c3c2)S1 = criterion not met
• Cc1ccc(C(=O)Nc2cccc(C(F)(F)F)c2)cc1Nc1cncc(C(N)=O)c1 = criterion not met
• O=c1[nH]c2ccccc2n1C1CCN(Cc2ccc(-c3nc4cc5[nH]cnc5cc4nc3-c3ccccc3)cc2)CC1 = criterion not met
• CS(=O)(=O)N1CCN(Cc2cc3nc(-c4cccc5[nH]ncc45)nc(N4CCOCC4)c3s2)CC1 = criterion not met

###

Collected kinase still bound, per cent of control values appear next to each entry.
Biological target: UniProtKB Q9Y2K2
Sequence (Q9Y2K2 whole entry, looked up): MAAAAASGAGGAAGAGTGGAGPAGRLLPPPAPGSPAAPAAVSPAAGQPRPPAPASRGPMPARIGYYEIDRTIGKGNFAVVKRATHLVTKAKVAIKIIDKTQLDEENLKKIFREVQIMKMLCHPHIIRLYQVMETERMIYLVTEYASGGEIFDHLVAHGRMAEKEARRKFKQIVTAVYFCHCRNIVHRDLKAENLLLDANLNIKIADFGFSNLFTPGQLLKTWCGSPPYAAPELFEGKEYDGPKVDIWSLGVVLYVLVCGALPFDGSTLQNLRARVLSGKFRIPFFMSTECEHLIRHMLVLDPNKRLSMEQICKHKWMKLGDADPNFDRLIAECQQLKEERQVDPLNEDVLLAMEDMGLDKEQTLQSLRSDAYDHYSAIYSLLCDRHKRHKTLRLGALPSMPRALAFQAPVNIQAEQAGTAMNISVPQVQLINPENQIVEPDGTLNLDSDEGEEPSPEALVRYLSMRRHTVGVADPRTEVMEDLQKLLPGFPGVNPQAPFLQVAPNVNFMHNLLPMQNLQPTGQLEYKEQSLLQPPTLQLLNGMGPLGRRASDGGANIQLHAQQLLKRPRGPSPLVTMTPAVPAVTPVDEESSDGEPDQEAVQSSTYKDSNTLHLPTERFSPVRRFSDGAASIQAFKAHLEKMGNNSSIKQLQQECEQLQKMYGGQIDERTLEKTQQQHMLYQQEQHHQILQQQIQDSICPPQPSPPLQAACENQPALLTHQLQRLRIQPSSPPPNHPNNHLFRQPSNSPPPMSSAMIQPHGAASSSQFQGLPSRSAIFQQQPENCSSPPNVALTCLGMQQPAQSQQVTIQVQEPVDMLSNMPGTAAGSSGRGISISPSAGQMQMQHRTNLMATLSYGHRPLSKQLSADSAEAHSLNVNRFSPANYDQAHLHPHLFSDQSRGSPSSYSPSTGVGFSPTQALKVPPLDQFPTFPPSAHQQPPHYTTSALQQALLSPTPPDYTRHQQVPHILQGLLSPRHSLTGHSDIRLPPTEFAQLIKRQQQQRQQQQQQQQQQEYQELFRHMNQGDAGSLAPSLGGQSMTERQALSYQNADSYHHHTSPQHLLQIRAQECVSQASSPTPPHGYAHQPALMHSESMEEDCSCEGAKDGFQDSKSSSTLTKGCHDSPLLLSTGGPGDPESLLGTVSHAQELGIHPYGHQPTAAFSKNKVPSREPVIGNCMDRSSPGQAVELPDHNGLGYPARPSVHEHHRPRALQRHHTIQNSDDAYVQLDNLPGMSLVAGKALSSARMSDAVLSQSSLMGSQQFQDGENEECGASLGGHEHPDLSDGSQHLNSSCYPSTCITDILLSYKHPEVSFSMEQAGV
Assay: KINOMEscan competition binding
Settings: compound 10.0 µM
measured-parameter: kinase still bound, per cent of control (%)

* Cc1ccc(NC(=O)c2cccc(C(C)(C)C#N)c2)cc1Nc1ccc2ncn(C)c(=O)c2c1 | 100
* C[C@@H](Oc1cc(-n2cnc3ccc(CN4CCN(C)CC4)cc32)sc1C(N)=O)c1ccccc1C(F)(F)F | 69
* COc1cc(C(=O)NC2CCN(C)CC2)ccc1Nc1ncc2c(n1)N(C1CCCC1)CCC(=O)N2C(C)C | 100
* O=C(NC1CC1)c1cccc(-c2ccc3c(NC(=O)C4CC4)n[nH]c3c2)c1 | 100
* COc1cc(N2CCN(C)CC2)ccc1Nc1nc(N)c(C(=O)c2c(Cl)cccc2Cl)s1 | 76
* C=CC(=O)Nc1cc(NC(=O)c2ccc(C)c(NC(=O)c3ccno3)c2)cc(C(F)(F)F)c1 | 82
* N#Cc1c(NC(=O)c2cccc3ccccc23)sc2c1CCCC2 | 65
* CCC(=O)N1CCN(c2ccc(-n3c(=O)ccc4cnc5ccc(-c6cnc7ccccc7c6)cc5c43)cc2C(F)(F)F)CC1 | 89
* Cc1cc([C@@H](C)Nc2ccccc2C(=O)O)c2nc(N3CCOCC3)cc(=O)n2c1 | 95
* Cn1c(=O)n(-c2ccc(C(C)(C)C#N)cc2)c2c3cc(-c4cnc5ccccc5c4)ccc3ncc21 | 100
* O=C(NOC[C@H](O)CO)c1ccc(F)c(F)c1Nc1ccc(I)cc1F | 52
* Cc1ccc2nc(NCCN)c3ncc(C)n3c2c1 | 100
* OCCCNc1cc(-c2ccnc(Nc3cccc(Cl)c3)n2)ccn1 | 100
* CCN1CCN(Cc2ccc(Nc3ncc4c(n3)N(C)c3ccccc3C(=O)N4C)cc2C(F)(F)F)CC1 | 74
* O=C1Nc2ccc(I)cc2/C1=C/c1cc(Br)c(O)c(Br)c1 | 100
* CN(C)C/C=C/C(=O)Nc1cccc(Nc2ncc3c(n2)N(C)c2ccccc2C(=O)N3C)c1 | 20
* Nc1ccc(-c2ccc3ncc4ccc(=O)n(-c5cccc(C(F)(F)F)c5)c4c3c2)cn1 | 79
* C=CC(=O)Nc1cccc(Nc2nc(N[C@H]3CC[C@H](N(C)C)CC3)nc3c2ncn3C(C)C)c1 | 92
* CCOc1cc2ncc(C#N)c(Nc3ccc(OCc4ccccn4)c(Cl)c3)c2cc1NC(=O)/C=C/CN(C)C | 73
* O=C(O)c1ccc(Nc2ncc3c(n2)-c2ccc(Cl)cc2C(c2c(F)cccc2F)=NC3)cc1 | 98
* CCCS(=O)(=O)Nc1ccc(F)c(C(=O)c2c[nH]c3ncc(-c4ccc(Cl)cc4)cc23)c1F | 100

###

Target: ALK (human) (UniProt Q9UM73)
Sequence (Q9UM73 whole entry, looked up): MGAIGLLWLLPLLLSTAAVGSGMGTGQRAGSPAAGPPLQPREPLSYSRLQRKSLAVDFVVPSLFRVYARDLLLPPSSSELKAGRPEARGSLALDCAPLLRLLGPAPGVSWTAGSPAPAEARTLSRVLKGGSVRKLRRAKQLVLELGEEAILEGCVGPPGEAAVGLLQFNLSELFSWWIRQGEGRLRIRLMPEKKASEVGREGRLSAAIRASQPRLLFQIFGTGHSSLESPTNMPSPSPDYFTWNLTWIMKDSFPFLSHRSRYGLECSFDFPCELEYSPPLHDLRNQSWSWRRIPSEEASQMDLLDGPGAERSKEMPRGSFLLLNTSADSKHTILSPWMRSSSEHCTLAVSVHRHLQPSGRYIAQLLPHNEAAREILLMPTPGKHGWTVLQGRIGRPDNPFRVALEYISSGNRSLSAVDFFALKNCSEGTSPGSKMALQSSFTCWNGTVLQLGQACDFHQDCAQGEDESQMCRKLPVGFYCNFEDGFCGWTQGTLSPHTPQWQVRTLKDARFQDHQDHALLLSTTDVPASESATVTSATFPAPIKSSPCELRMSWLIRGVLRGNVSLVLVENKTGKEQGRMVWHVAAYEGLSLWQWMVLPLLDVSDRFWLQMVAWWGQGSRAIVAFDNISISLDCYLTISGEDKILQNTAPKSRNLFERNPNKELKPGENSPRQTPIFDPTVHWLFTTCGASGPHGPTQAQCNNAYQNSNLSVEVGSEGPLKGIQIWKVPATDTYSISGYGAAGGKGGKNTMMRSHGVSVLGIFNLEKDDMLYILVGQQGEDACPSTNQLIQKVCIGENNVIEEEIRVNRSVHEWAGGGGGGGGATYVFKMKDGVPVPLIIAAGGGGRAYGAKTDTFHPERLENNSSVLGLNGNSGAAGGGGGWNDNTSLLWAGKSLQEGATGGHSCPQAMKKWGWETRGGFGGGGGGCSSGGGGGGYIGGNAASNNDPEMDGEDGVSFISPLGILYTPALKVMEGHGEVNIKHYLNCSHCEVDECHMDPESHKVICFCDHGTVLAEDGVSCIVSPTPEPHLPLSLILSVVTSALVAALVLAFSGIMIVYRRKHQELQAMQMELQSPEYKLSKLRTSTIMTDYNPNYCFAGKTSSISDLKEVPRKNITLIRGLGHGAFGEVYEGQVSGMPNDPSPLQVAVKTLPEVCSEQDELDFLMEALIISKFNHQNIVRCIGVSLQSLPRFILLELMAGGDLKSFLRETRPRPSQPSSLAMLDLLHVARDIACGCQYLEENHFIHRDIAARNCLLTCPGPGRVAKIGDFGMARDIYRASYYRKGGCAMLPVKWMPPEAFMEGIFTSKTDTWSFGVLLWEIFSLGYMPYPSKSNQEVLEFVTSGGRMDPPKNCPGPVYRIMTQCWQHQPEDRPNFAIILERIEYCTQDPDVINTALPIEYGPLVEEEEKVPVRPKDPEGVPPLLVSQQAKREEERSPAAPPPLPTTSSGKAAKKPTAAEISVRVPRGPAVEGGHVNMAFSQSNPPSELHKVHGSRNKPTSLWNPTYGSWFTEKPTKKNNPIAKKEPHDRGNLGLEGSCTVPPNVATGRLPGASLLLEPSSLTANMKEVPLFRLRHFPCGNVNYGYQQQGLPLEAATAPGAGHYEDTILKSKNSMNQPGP
Test: KINOMEscan competition binding
Details: compound 10.0 µM
measured-parameter: kinase still bound, per cent of control (%)

• CCOc1cc2ncc(C#N)c(Nc3ccc(OCc4ccccn4)c(Cl)c3)c2cc1NC(=O)/C=C/CN(C)C = 100
• O=C(NC1CC1)c1cccc(-c2ccc3c(NC(=O)C4CC4)n[nH]c3c2)c1 = 100
• Cc1ccc2nc(NCCN)c3ncc(C)n3c2c1 = 100
• C[C@@H](Oc1cc(-n2cnc3ccc(CN4CCN(C)CC4)cc32)sc1C(N)=O)c1ccccc1C(F)(F)F = 100
• COc1cc(N2CCN(C)CC2)ccc1Nc1nc(N)c(C(=O)c2c(Cl)cccc2Cl)s1 = 0.35
• C=CC(=O)Nc1cccc(Oc2nc(Nc3ccc(N4CCN(C)CC4)cc3OC)ncc2Cl)c1 = 0.7
• Cc1cc([C@@H](C)Nc2ccccc2C(=O)O)c2nc(N3CCOCC3)cc(=O)n2c1 = 100
• C=CC(=O)Nc1cc(NC(=O)c2ccc(C)c(NC(=O)c3ccno3)c2)cc(C(F)(F)F)c1 = 95
• CCN1CCN(Cc2ccc(Nc3ncc4c(n3)N(C)c3ccccc3C(=O)N4C)cc2C(F)(F)F)CC1 = 64
• Cn1c(=O)n(-c2ccc(C(C)(C)C#N)cc2)c2c3cc(-c4cnc5ccccc5c4)ccc3ncc21 = 100
• OCCCNc1cc(-c2ccnc(Nc3cccc(Cl)c3)n2)ccn1 = 100
• COc1cc(C(=O)NC2CCN(C)CC2)ccc1Nc1ncc2c(n1)N(C1CCCC1)CCC(=O)N2C(C)C = 100
• C=CC(=O)Nc1cccc(Nc2nc(N[C@H]3CC[C@H](N(C)C)CC3)nc3c2ncn3C(C)C)c1 = 21
• O=C(NOC[C@H](O)CO)c1ccc(F)c(F)c1Nc1ccc(I)cc1F = 100
• Nc1ccc(-c2ccc3ncc4ccc(=O)n(-c5cccc(C(F)(F)F)c5)c4c3c2)cn1 = 100
• CCCS(=O)(=O)Nc1ccc(F)c(C(=O)c2c[nH]c3ncc(-c4ccc(Cl)cc4)cc23)c1F = 62
• O=C(O)c1ccc(Nc2ncc3c(n2)-c2ccc(Cl)cc2C(c2c(F)cccc2F)=NC3)cc1 = 48
• Cc1ccc(C(=O)Nc2cccc(C(F)(F)F)c2)cc1Nc1cncc(C(N)=O)c1 = 100
• CCC(=O)N1CCN(c2ccc(-n3c(=O)ccc4cnc5ccc(-c6cnc7ccccc7c6)cc5c43)cc2C(F)(F)F)CC1 = 80

###

Collected kinase still bound, per cent of control values appear next to each entry.
Target: PDPK1 (human)
Test: KINOMEscan competition binding
Details: compound 10.0 µM
measured-parameter: kinase still bound, per cent of control (%)

• CC[C@@H]1C(=O)N(C)c2cnc(Nc3ccc(C(=O)NC4CCN(C)CC4)cc3OC)nc2N1C1CCCC1 = 100
• Cn1c(=O)n(-c2ccc(C(C)(C)C#N)cc2)c2c3cc(-c4cnc5ccccc5c4)ccc3ncc21 = 100
• CCN1CCN(Cc2ccc(Nc3ncc4c(n3)N(C)c3ccccc3C(=O)N4C)cc2C(F)(F)F)CC1 = 100
• CCCS(=O)(=O)Nc1ccc(F)c(C(=O)c2c[nH]c3ncc(-c4ccc(Cl)cc4)cc23)c1F = 70
• CCC(=O)N1CCN(c2ccc(-n3c(=O)ccc4cnc5ccc(-c6cnc7ccccc7c6)cc5c43)cc2C(F)(F)F)CC1 = 100
• N#Cc1c(NC(=O)c2cccc3ccccc23)sc2c1CCCC2 = 81
• COc1cc(C(=O)NC2CCN(C)CC2)ccc1Nc1ncc2c(n1)N(C1CCCC1)CCC(=O)N2C(C)C = 100
• C=CC(=O)Nc1cccc(Nc2nc(N[C@H]3CC[C@H](N(C)C)CC3)nc3c2ncn3C(C)C)c1 = 100

###

Biological target: PLK1 (human)
Assay: KINOMEscan competition binding
Conditions: compound 10.0 µM
measured-parameter: kinase still bound, per cent of control (%)

* COc1cc(N2CCN(C)CC2)ccc1Nc1nc(N)c(C(=O)c2c(Cl)cccc2Cl)s1 | 72
* Cc1ccc(C(=O)Nc2cccc(C(F)(F)F)c2)cc1Nc1cncc(C(N)=O)c1 | 100
* OCCCNc1cc(-c2ccnc(Nc3cccc(Cl)c3)n2)ccn1 | 100
* N#Cc1c(NC(=O)c2cccc3ccccc23)sc2c1CCCC2 | 81
* C[C@@H](Oc1cc(-n2cnc3ccc(CN4CCN(C)CC4)cc32)sc1C(N)=O)c1ccccc1C(F)(F)F | 0.1

###

Biological target: BRSK2 (human)
Test: KINOMEscan competition binding
Settings: compound 10.0 µM
measured-parameter: kinase still bound, per cent of control

• OCCCNc1cc(-c2ccnc(Nc3cccc(Cl)c3)n2)ccn1 = 100%
• Cc1cc([C@@H](C)Nc2ccccc2C(=O)O)c2nc(N3CCOCC3)cc(=O)n2c1 = 100%
• CCOc1cc2ncc(C#N)c(Nc3ccc(OCc4ccccn4)c(Cl)c3)c2cc1NC(=O)/C=C/CN(C)C = 100%
• Cn1c(=O)n(-c2ccc(C(C)(C)C#N)cc2)c2c3cc(-c4cnc5ccccc5c4)ccc3ncc21 = 100%
• CCN1CCN(Cc2ccc(Nc3ncc4c(n3)N(C)c3ccccc3C(=O)N4C)cc2C(F)(F)F)CC1 = 42%
• Cc1ccc(NC(=O)c2cccc(C(C)(C)C#N)c2)cc1Nc1ccc2ncn(C)c(=O)c2c1 = 100%
